Value source: patent US5308869A

molecular target: sigma receptor; test: Sigma receptor binding assay, [^3 H]DTG, guinea pig brain membrane homogenates; settings: read-out: IC50 vs [^3 H]DTG (MEAN); guinea pig brain membranes; […] [^3 H]DTG; pH 7.4; 90 minutes at room temperature; mean with SEM and n in own columns
Consider the following compounds; for each one, report its pIC50.
Answers are plain numbers, as −log10 of the molar value.

Study these solved cases before continuing.
>  <compound>
CCc1cccc(N=C(C)Nc2cccc(CC)c2)c1

>  <target.or.test.system>
sigma receptor

>  <reported.property>
pIC50

>  <result>
7.89

$$$$
>  <compound>
CC(=Nc1ccccc1C)NC12CC3CC(CC(C3)C1)C2

>  <target.or.test.system>
sigma receptor

>  <reported.property>
pIC50

>  <result>
8.14

$$$$
>  <compound>
CC(=Nc1ccccc1C(C)C)Nc1cccc2ccccc12

>  <target.or.test.system>
sigma receptor

>  <reported.property>
pIC50

>  <result>
6.93

$$$$
>  <compound>
CN=C(C)Nc1ccccc1C

>  <target.or.test.system>
sigma receptor

>  <reported.property>
pIC50

>  <result>
6.45

$$$$
>  <compound>
CCc1cccc(N=C(C)Nc2cccc3ccccc23)c1 [N-(1-naphthyl)-N'-(3-ethylphenyl)-acetamidine]

>  <target.or.test.system>
sigma receptor

>  <reported.property>
pIC50

>  <result>
6.91

$$$$
>  <compound>
CC(=Nc1ccccc1C(C)C)Nc1ccccc1C(C)C

>  <target.or.test.system>
sigma receptor

>  <reported.property>
pIC50

>  <result>
7.11

$$$$
>  <compound>
CC(=NC12CC3CC(CC(C3)C1)C2)NC12CC3CC(CC(C3)C1)C2

>  <target.or.test.system>
sigma receptor

>  <reported.property>
pIC50

>  <result>
7.80

$$$$
>  <compound>
CC(=Nc1cccc2ccccc12)Nc1cccc2ccccc12

>  <target.or.test.system>
sigma receptor

>  <reported.property>
pIC50

>  <result>
6.77

$$$$

Please look at the items below and tell me pIC50 for each one, in order.
1. CCc1cccc(N=C(C)Nc2cccc3ccccc23)c1 [N-(1-naphthyl)-N'-(m-ethylphenyl)-acetamidine]
2. CC(=Nc1ccccc1C)Nc1ccccc1C [N,N'-bis(-o-tolyl)acetamidine, N,N'-Bis(o-methylphenyl)acetamidine]
3. CC(=Nc1ccccc1C)NC1CC2CCC1C2 (stereo not drawn)
4. CC(=Nc1ccc(Br)cc1C)Nc1ccc(Br)cc1C

// result
1. 5.62
2. 7.82
3. 8.03
4. 7.59

Please look at the items below and tell me pIC50 for each one, in order.
1. CC(=NC1CCCCC1)NC12CC3CC(CC(C3)C1)C2
2. CC(=NC1CCCCC1)Nc1ccccc1C
3. CCc1ccccc1N=C(C)Nc1ccccc1CC

// result
[7.14, 8.05, 7.43]
